- System: K86415-001-R-J1-PDC complex spheroids, viability
- assay-text: Anticancer human tumor K86415-001-R-J1-PDC patient-derived lung adenocarcinoma cell line growth inhibition [RAS]
- study-conditions: second compound 0.316 µM; first compound 10 µM; stronger effect = lower value
# note: exactly 10% is not below, so it is not met; use met for viability, T/C strictly under it

For orientation, consider the following solved cases.
C[C@@H](NC(=O)c1ncnc(N)c1Cl)c1ncc(C(=O)Nc2cc(C(F)(F)F)c(Cl)cn2)s1 + C#Cc1c(F)ccc2cc(O)cc(-c3ncc4c(N5CC6CCC(C5)N6)nc(OCC56CCCN5CC(F)C6)nc4c3F)c12; not met
Cc1nc(N2CCC3(CC2)COC(C)C3N)c(CO)nc1Sc1ccnc(N)c1Cl (stereo not given) + C#Cc1c(F)ccc2cc(O)cc(-c3ncc4c(N5CC6CCC(C5)N6)nc(OCC56CCCN5CC(F)C6)nc4c3F)c12; not met
C[C@@H](NC(=O)c1ncnc(N)c1Cl)c1ncc(C(=O)Nc2cc(C(F)(F)F)c(Cl)cn2)s1 + C=CC(=O)N1CCN(c2nc(OCC3CCCN3C)nc3c(F)c(-c4nc(N)cc(C)c4C(F)(F)F)c(Cl)cc23)C(C)C1; not met
CC(C)NCC(C(=O)N1CCN(c2ncnc3c2C(C)CC3O)CC1)c1ccc(Cl)cc1 (stereo not given) + C#Cc1c(F)ccc2cc(O)cc(-c3ncc4c(N5CC6CCC(C5)N6)nc(OCC56CCCN5CC(F)C6)nc4c3F)c12; not met
CC(Nc1ccc2c(c1)OCCn1cc(N3C(=O)OCC3C(F)F)nc1-2)C(N)=O (stereo not given) + C#Cc1c(F)ccc2cc(O)cc(-c3ncc4c(N5CC6CCC(C5)N6)nc(OCC56CCCN5CC(F)C6)nc4c3F)c12; not met

Please examine the following record next.
Input line: Regarding CC(=O)OC12COC1CC(O)C1(C)C(=O)C(O)C3=C(C)C(OC(=O)C(O)C(NC(=O)OC(C)(C)C)c4ccccc4)CC(O)(C(OC(=O)c4ccccc4)C21)C3(C)C (stereo not given) + C=CC(=O)N1CCN(c2nc(OCC3CCCN3C)nc3c(F)c(-c4nc(N)cc(C)c4C(F)(F)F)c(Cl)cc23)C(C)C1 , kindly confirm whether its viability, T/C is beneath 10%.
Output line: met

----------
- Test system: K86415-001-R-J1-PDC complex spheroids, viability
- assay-text: Anticancer human tumor K86415-001-R-J1-PDC cell line growth inhibition [RAS];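 further: spheroids exposed to agents for seven days before readout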
- study-conditions: second compound 0.316 µM; first compound 0.03 µM; stronger effect = lower value
- Excerpt: RAS pathway inhibitors in Combinations in Complex Spheroids A high-throughput screen of multi-cell type tumor spheroids was designed to identify active combinations of RAS pathway inhibitors and targeted small molecules. Complex spheroids include a stromal component modeled by human endothelial cells (HUVEC) and fibroblasts modeled by human mesenchymal stem cells (MSCs). […] Compounds. […] If the clinical Cmax for an agent had not been determined, the highest concentration tested was 10 microM. […]
property-name: viability, T/C (%)
Return type: number; implicit unit %.

Use the examples below as a reference point.
CCc1c2c(nc3ccc(O)cc13)-c1cc3c(c(=O)n1C2)COC(=O)[C@]3(O)CC + C#Cc1c(F)ccc2cc(O)cc(-c3ncc4c(N5CC6CCC(C5)N6)nc(OCC56CCCN5CC(F)C6)nc4c3F)c12; 15.6
CCc1c2c(nc3ccc(O)cc13)-c1cc3c(c(=O)n1C2)COC(=O)[C@]3(O)CC + C=CC(=O)N1CCN(c2nc(OCC3CCCN3C)nc3c(F)c(-c4nc(N)cc(C)c4C(F)(F)F)c(Cl)cc23)C(C)C1; 10.7
CC1(C)CCC(Nc2ncc(C(F)(F)F)c(-c3c[nH]c4c(P(C)(C)=O)c(C#N)ccc34)n2)CN1 (centres undefined) + C=CC(=O)N1CCN(c2nc(OCC3CCCN3C)nc3c(F)c(-c4nc(N)cc(C)c4C(F)(F)F)c(Cl)cc23)C(C)C1; 12.8

Kindly review the next compound as well.
Input line: Can you look up the measured viability, T/C of CC1(C)CCC(Nc2ncc(C(F)(F)F)c(-c3c[nH]c4c(P(C)(C)=O)c(C#N)ccc34)n2)CN1 (centres undefined) + C#Cc1c(F)ccc2cc(O)cc(-c3ncc4c(N5CC6CCC(C5)N6)nc(OCC56CCCN5CC(F)C6)nc4c3F)c12 for me?
Output line: 60.4
